Entry source: ChEMBL document CHEMBL4680274

- experimental details: Cytotoxicity against human neural progenitor cell by CellTiter-Glo Luminescent Cell Viability Assay
- Type: tissue-based
- conditions used: neural progenitor cells
measured attribute: CC50 (µM)

INSERT INTO measurements (molecule_smiles, measured_attribute, data_value) VALUES
  ('CCn1cc(C(=O)O)c(=O)c2cc(F)c(N3CCNCC3)nc21', 'CC50', 176);
